assay: Approximate solubility of freebase in 12 solvents at RT; assay type: physicochemical; conditions: organic solvent or mixture, thermodynamic from solid, IPA
value_kind: solubility

Lookup: Given the molecule COc1cc(Nc2nccc(Nc3cccnc3-c3ccccn3)n2)ccc1N1CCN(C)CC1 [Freebase Form A] , what is its reported solubility?
Found: < 2400 µg/mL

###

test: Pharmacokinetics and relative bioavailability after a single oral dose (two liquid formulations, powder in capsule); type: in vivo, male Beagle dogs; settings: male, Beagle, dog, plasma, po, 2 mg/kg, Formulation #1 (Table 43), 2 mg/kg oral, male Beagle dogs, individual dog
value_kind: AUC(0-inf) (ng·h/mL)
Give just the number in ng·h/mL; leave the unit off.

Lookup: Can you share its AUC(0-inf)? I mean this compound: COc1cc(Nc2nccc(Nc3cccnc3-c3ccccn3)n2)ccc1N1CCN(C)CC1
Found: 49

Reference source for all entries: patent US11040038B2
